biological target: HEK293 transfected with human DDR2 (Homo sapiens); construct: expressed in transfected cells; host or cells: HEK293 (PLT460F_(DDR2)-P7-1); assay: Phospho-DDR2 cellular assay (collagen II induced DDR2 phosphorylation, ELISA); assay type: cell-based; conditions: HEK293 transfected with human DDR2, 50 μg/ml chicken collagen II, 16 h; read-out: IC50 [p-DDR2]
Value kind: IC50 (nM)

Solved cases below.
CNC(=O)c1cc(Oc2ccc(CNC(=O)Nc3cc(C(F)(F)F)cnc3Cl)cc2)ccn1    58
O=C(Nc1ccc(Cc2nc3cc[nH]c(=O)c3[nH]2)cc1)Nc1cccc(C(F)(F)F)c1    320

I: Cn1cc(C(F)(F)F)cc(NC(=O)NCc2ccc(Oc3ccnc4[nH]ccc34)cc2)c1=O
II: Cc1cc(Oc2ccc(CNC(=O)Nc3cc(C(F)(F)F)cnc3Cl)cc2)ccn1
Select one. Lower IC50: I or II Record your answer as the label of the chosen record.
I
(I: 20 nM, II: 94 nM)

* * *

molecular target: His-tagged human recombinant DDR-2 kinase domain (His-TEV-DDR2 467-855 aa) (Homo sapiens); construct: His-TEV-DDR2 467-855 aa; assay: Autophosphorylation assay for biochemical activity testing of DDR2 (HTRF); conditions: biochemical DDR2 autophosphorylation
pIC50: −log10 of the molar value.
Value kind: pIC50

P: CNC(=O)c1cc(Oc2ccc(CNC(=O)Nc3cc(C)c(Cl)cc3OC)cc2C)ccn1
Q: CNC(=O)c1cc(Oc2ccc(CNC(=O)Nc3cc(C)c(Cl)cc3OCCN3CCNCC3)cc2C)ccn1
Select one. Lower pIC50: P or Q Record your answer as the label of the chosen record.
P

* * *

Target: His-tagged human recombinant DDR-2 kinase domain (His-TEV-DDR2 467-855 aa) (Homo sapiens)
Construct: His-TEV-DDR2 467-855 aa
Sequence (Q16832 467-855): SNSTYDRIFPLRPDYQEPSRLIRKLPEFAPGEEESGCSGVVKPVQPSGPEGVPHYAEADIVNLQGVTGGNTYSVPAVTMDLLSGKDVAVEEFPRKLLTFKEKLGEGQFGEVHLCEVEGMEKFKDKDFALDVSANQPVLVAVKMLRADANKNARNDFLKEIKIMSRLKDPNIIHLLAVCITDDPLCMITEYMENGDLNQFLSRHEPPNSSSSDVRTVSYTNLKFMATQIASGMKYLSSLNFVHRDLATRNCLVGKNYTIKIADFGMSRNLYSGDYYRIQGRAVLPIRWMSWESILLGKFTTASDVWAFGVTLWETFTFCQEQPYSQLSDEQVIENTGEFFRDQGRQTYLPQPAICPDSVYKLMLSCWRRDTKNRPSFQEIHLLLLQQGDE
Experiment: Autophosphorylation assay for biochemical activity testing of DDR2 (HTRF)
Conditions: biochemical DDR2 autophosphorylation
pIC50: −log10 of the molar value.
Value kind: pIC50

CNC(=O)c1cc(Oc2ccc(CNC(=O)Nc3ccccn3)cc2)ccn1    5.42

I: O=C(NCc1ccc(Oc2ccncc2)cc1)Nc1cc(Cl)cc(Cl)c1
II: CNC(=O)c1cc(Oc2ccc(CNC(=O)Nc3cc(C)c(Cl)cc3OCCN)cc2)ccn1
III: Cc1cc(NC(=O)NCc2ccc(Oc3ccncc3)cc2)ccc1Br
IV: CNCCOc1ccc(C(F)(F)F)cc1NC(=O)NCc1ccc(Oc2ccnc(C(=O)NC)c2)c(C)c1
Kindly order the items shown according to pIC50, from the highest value down. API: response body holds the labels in the requested order.
IV, II, I, III
(IV: 7.48, II: 7.04, I: 5.92, III: 5.33)

* * *

test system: proMMP13 production by SW1353 cells; test: Production of MMP13 (proMMP13 ELISA) by SW1353 cells upon stimulation with collagen type II; format: cell-based; conditions: Homo sapiens, SW1353, 72 h, read-out: IC50 [pro-MMP13]
Overview of recorded IC50 for various compounds
Please respond with the number in nM and leave the unit unwritten.

CNC(=O)c1cc(Oc2ccc(CNC(=O)Nc3cc(C(F)(F)F)cn(C)c3=O)cc2)ccn1    14.8

# input for lookup
Request body: readout IC50, system proMMP13 production by SW1353 cells, query `CNC(=O)c1cc(Oc2ccc(CNC(=O)Nc3cc(Cl)cnc3Cl)cc2)ccn1` . Return the value.
278

* * *

target: His-tagged human recombinant DDR-2 kinase domain (His-TEV-DDR2 467-855 aa) (Homo sapiens); construct: His-TEV-DDR2 467-855 aa; test: Autophosphorylation assay for biochemical activity testing of DDR2 (HTRF); conditions: 4 nM DDR2 kinase domain, 150 μM ATP, 150 min at 22° C.
pIC50: −log10 of the molar value.
Value kind: pIC50

Solved cases below.
CNC(=O)c1cc(Oc2ccc(CNC(=O)Nc3cnc4ccccc4c3)cc2)ccn1 [compound 10]    6.54
Cn1cc(C(F)(F)F)cc(NC(=O)NCc2ccc(Oc3ccnc4ccccc34)cc2)c1=O [compound 9]    7.29
CNC(=O)c1cc(Oc2ccc(COC(=O)Nc3cc(C(F)(F)F)ccn3)cc2)ccn1 [compound 3]    7.48

P: CCn1cc(C(F)(F)F)cc(NC(=O)NCc2ccc(Oc3ccnc(C(=O)NC)c3)cc2)c1=O [compound 11]
Q: O=C(Nc1ccc(Cc2nc3cc[nH]c(=O)c3[nH]2)cc1)Nc1cccc(C(F)(F)F)c1 [compound 4]
R: CNC(=O)c1cc(Oc2ccc(COC(=O)Nc3cc(C(F)(F)F)ccn3)cc2C)ccn1 [compound 4]
S: Cc1cc(Oc2ccc(CNC(=O)Nc3cc(C(F)(F)F)cnc3Cl)cc2)ccn1 [compound 29]
T: CNC(=O)c1cc(Oc2ccc(CNC(=O)Nc3cc(Cl)nc(Cl)c3)cc2)ccn1 [compound 2]
Put the molecules in ascending order of pIC50. API: response body holds the labels in the requested order.
T, S, P, R, Q

* * *

molecular target: His-tagged human recombinant DDR-2 kinase domain (His-TEV-DDR2 467-855 aa) (Homo sapiens); construct: His-TEV-DDR2 467-855 aa; assay: Autophosphorylation assay for biochemical activity testing of DDR2 (HTRF); settings: biochemical DDR2 autophosphorylation
pIC50: −log10 of the molar value.
Value kind: pIC50

Solved cases below.
CNC(=O)c1cc(Oc2ccc(CNC(=O)Nc3cc(C)c(Cl)cc3OCCNS(C)(=O)=O)cc2)ccn1 [compound 193]    6.74
CNC(=O)c1cc(Oc2ccc(CNC(=O)Nc3ccccc3OC)cc2)ccn1 [compound 14]    5.72
CNCCOc1ccc(C)cc1NC(=O)NCc1ccc(Oc2ccnc(C(=O)NC)c2)c(C)c1 [compound 215]    7.16
O=C(NCc1ccc(Oc2ccncc2)cc1)Nc1ccc(Br)cc1 [compound 9]    5.42

1: Cc1cc2nccc(Oc3ccc(CNC(=O)Nc4cc(C)c(Cl)cc4OCCN(C)C)cc3C)c2o1 [compound 253]
2: CNC(=O)c1cc(Oc2ccc(CNC(=O)Nc3cc(C)c(Cl)cc3OCCN3CCOCC3)c(C)c2)ccn1 [compound 133]
3: CNC(=O)c1cc(Oc2ccc(CNC(=O)Nc3ccc(Cl)cc3OC)cc2)ccn1 [compound 79]
4: O=C(NCc1ccc(Oc2ccncc2)cc1)Nc1ccc(Cl)cc1C(F)(F)F [compound 40]
Put the compounds in ascending order of pIC50. API: response body holds the labels in the requested order.
4, 2, 3, 1

* * *

target: HEK293 transfected with human DDR2 (Homo sapiens); construct: expressed in transfected cells; host or cells: HEK293 (PLT460F_(DDR2)-P7-1); test: Phospho-DDR2 cellular assay (collagen II induced DDR2 phosphorylation, ELISA); format: cell-based; conditions: cellular phospho-DDR2; read-out: IC50 [p-DDR2]
Value kind: IC50 (nM)

CNC(=O)c1cc(Oc2ccc(CNC(=O)Nc3cc(Cl)ccc3OC)cc2)ccn1    14
CNC(=O)c1cc(Oc2ccc(CNC(=O)Nc3ccc(C)cn3)cc2C)ccn1    630
CNC(=O)c1cc(Oc2ccc(CNC(=O)Nc3cc(C(F)(F)F)ccc3-n3ccnn3)cc2)ccn1    31
CNCCOc1cc(Cl)c(C)cc1NC(=O)NCc1ccc(Oc2ccnc(C(=O)NC)c2)c(C)c1    25
CNC(=O)c1cc(Oc2ccc(CNC(=O)Nc3cc(C)ccn3)cc2C)ccn1    205

1: CNCCOc1cc(Cl)c(C(F)(F)F)cc1NC(=O)NCc1ccc(Oc2ccnc(C(=O)NC)c2)cc1
2: CNC(=O)c1cc(Oc2ccc(C(C)NC(=O)Nc3cc(Cl)ccc3OC)cc2)ccn1 (centres unmarked)
Select one. Lower IC50: 1 or 2 Record your answer as the label of the chosen record.
1
(1: 34 nM, 2: 74 nM)

* * *

Molecular target: HEK293 transfected with human DDR2 (Homo sapiens, UniProt Q16832)
Construct: expressed in transfected cells; host or cells: HEK293 (PLT460F_(DDR2)-P7-1)
Sequence (Q16832 22-855): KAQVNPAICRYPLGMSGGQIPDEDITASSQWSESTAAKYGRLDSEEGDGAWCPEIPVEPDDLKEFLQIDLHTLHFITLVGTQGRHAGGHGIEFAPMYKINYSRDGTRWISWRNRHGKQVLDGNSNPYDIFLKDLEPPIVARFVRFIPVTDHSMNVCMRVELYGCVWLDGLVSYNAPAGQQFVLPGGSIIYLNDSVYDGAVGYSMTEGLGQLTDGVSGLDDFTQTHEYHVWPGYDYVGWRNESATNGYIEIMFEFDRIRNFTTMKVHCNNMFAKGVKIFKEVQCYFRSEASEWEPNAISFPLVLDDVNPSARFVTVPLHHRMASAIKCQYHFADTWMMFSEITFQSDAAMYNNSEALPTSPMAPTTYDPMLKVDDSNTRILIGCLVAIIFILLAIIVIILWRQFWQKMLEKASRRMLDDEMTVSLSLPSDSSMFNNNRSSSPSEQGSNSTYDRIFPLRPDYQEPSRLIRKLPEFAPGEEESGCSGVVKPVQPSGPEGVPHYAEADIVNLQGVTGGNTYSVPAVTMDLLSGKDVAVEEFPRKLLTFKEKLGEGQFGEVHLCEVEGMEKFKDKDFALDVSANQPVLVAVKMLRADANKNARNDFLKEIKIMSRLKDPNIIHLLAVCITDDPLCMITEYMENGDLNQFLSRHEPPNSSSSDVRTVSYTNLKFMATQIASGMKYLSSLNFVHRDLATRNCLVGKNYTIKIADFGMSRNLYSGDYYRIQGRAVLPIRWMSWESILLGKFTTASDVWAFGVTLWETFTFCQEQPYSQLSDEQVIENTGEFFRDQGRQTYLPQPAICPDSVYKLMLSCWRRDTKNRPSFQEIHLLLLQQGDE
Test: Phospho-DDR2 cellular assay (collagen II induced DDR2 phosphorylation, ELISA)
Type: cell-based
Details: cellular phospho-DDR2; read-out: IC50 [p-DDR2]
Value kind: IC50 (nM)

CNC(=O)c1cc(Oc2ccc(CNC(=O)Nc3cc(C(F)(F)F)ccc3OCCNC(C)C)cc2)ccn1    31

A: CNC(=O)c1cc(Oc2ccc(CNC(=O)Nc3cccc(NS(C)(=O)=O)c3)cc2C)ccn1
B: CNC(=O)c1cc(Oc2ccc(CNC(=O)Nc3cccc(S(=O)(=O)NC(C)C)c3)cc2)ccn1
C: CNC(=O)c1cc(Oc2ccc(CNC(=O)Nc3cc(C)c(Cl)cc3OCCN)cc2)ccn1
Kindly order the items shown according to IC50, from the highest value down. API: response body holds the labels in the requested order.
B, A, C

A: CNC(=O)c1cc(Oc2ccc(CNC(=O)Nc3cc(C)c(Cl)cc3N(C)CCN(C)C)cc2)ccn1
B: CNC(=O)c1cc(Oc2ccc(CNC(=O)Nc3ccccc3CO)cc2C)ccn1
Select one. Lower IC50: A or B Record your answer as the label of the chosen record.
A
(A: 1600 nM, B: 7500 nM)

P: CNC(=O)c1cc(Oc2ccc(CNC(=O)Nc3cc(C)c(Cl)cc3OCCCN(C)C)cc2)ccn1
Q: CNC(=O)c1cc(Oc2ccc(CNC(=O)Nc3cccc(N(C)C)c3)cc2)ccn1
// compare measured IC50, left P , right Q , return larger Record your answer as the label of the chosen record.
Q

The reported numbers originate from patent US20150225369A1.
